Biological target: Pdr3 (UniProt P33200)
Sequence: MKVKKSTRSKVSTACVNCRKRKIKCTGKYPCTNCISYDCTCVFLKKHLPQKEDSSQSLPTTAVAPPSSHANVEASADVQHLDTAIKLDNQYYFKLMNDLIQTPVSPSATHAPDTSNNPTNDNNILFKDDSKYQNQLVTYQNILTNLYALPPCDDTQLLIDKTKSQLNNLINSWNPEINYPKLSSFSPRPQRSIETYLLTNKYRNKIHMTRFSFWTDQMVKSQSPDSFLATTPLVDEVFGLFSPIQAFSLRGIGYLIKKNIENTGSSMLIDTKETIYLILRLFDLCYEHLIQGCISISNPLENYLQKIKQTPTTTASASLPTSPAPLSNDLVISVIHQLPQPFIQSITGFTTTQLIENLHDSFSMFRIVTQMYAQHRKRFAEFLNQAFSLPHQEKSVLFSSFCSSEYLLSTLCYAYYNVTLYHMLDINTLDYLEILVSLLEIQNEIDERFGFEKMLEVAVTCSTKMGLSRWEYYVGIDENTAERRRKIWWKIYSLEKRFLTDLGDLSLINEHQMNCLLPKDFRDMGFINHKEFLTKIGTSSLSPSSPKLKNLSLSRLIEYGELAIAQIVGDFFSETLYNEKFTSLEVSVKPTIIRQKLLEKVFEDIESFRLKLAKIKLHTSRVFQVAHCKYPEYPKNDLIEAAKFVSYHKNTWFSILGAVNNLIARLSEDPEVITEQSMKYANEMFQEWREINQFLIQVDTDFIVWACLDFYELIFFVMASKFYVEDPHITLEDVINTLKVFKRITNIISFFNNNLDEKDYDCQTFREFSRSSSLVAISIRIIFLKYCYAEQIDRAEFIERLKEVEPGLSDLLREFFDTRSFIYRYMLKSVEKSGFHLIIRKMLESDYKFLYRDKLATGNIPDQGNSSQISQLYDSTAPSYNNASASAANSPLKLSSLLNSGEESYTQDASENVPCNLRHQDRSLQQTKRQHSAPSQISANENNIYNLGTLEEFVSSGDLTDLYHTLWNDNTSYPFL
Test: PBM E-score (8-mer binding enrichment) (E-score (-0.5 to 0.5)); higher = stronger / more preferred TF binding
Conditions: protein concentration: 200 nM; construct: GST-full length
In all, about 33,000 sequences were measured (“E-score (-0.5 to 0.5)”: median about -0.035, highest 2% from about 0.35 on). This excerpt belongs to a sample that is enriched for the highest values.
measured_parameter: PBM E-score

Some solved cases for reference:
monomer_sequence	experimental_target	result
AGTTGACG	Pdr3 (UniProt P33200)	-0.0734
ATATCTGC	Pdr3 (UniProt P33200)	-0.044
CTCGGAGC	Pdr3 (UniProt P33200)	0.276

Query block: Could you share which PBM E-score value was measured for CCATTCCG ?
Result block: 0.425

Query block: Same lookup for CTAGGAAC , please.
Result block: -0.0409

====

Biological target: Pdr3 (UniProt P33200)
Sequence: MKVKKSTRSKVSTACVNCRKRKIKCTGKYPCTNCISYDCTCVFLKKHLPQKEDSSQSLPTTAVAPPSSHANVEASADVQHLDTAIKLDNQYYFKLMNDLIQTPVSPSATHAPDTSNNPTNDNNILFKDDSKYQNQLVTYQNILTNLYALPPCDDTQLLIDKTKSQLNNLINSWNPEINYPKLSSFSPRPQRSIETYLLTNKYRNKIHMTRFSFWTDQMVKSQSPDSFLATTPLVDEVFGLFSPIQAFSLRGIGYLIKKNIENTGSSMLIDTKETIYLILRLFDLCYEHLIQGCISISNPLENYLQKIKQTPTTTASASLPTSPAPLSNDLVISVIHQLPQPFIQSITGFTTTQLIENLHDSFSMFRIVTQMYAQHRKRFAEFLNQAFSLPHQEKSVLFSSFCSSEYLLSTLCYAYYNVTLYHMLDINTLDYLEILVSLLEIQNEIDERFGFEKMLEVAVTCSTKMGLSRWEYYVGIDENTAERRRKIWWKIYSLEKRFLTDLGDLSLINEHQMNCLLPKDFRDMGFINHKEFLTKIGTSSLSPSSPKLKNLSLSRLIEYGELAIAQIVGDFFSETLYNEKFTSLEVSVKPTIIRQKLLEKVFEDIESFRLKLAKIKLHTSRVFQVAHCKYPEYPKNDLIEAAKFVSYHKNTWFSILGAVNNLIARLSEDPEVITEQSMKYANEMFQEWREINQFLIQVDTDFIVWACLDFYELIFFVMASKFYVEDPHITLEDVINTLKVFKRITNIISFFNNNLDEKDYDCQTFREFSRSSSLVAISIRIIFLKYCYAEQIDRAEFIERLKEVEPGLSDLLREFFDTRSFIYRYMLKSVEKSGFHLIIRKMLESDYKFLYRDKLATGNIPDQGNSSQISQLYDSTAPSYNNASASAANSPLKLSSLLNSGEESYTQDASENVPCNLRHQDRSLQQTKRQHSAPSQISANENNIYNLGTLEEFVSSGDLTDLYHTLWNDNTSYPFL
Experiment: PBM E-score (8-mer binding enrichment) (E-score (-0.5 to 0.5)); higher = stronger / more preferred TF binding
Settings: protein concentration: 200 nM; construct: GST-full length
In all, about 33,000 sequences were measured (“E-score (-0.5 to 0.5)”: median about -0.035, highest 2% from about 0.35 on). This is one part of a sample in which the highest values are shown more often than they occur.
Lab note: anything with PBM E-score at or over 0.1 counts as MET; the rest go in NOT MET.

A selection of reference data follows.
monomer_sequence	assigned_category
AAGCTGTC	NOT MET
ACTTTGAA	NOT MET
CCACCTTA	NOT MET
CTGTTCCC	NOT MET
CGCGGGAC	MET

Query block: Threshold query (PBM E-score >= 0.1) on AGGGCGGG
Result block: MET

Query block: Same lookup for CCACCCCG , please.
Result block: MET

Query block: Same lookup for ACGAATGC , please.
Result block: NOT MET

Query block: Same lookup for GAGTACTC , please.
Result block: NOT MET

Query block: Same lookup for GGTTTCGA , please.
Result block: MET

Query block: Same lookup for CTAGAAAG , please.
Result block: NOT MET

====

Target: Pdr3 (UniProt P33200)
Sequence: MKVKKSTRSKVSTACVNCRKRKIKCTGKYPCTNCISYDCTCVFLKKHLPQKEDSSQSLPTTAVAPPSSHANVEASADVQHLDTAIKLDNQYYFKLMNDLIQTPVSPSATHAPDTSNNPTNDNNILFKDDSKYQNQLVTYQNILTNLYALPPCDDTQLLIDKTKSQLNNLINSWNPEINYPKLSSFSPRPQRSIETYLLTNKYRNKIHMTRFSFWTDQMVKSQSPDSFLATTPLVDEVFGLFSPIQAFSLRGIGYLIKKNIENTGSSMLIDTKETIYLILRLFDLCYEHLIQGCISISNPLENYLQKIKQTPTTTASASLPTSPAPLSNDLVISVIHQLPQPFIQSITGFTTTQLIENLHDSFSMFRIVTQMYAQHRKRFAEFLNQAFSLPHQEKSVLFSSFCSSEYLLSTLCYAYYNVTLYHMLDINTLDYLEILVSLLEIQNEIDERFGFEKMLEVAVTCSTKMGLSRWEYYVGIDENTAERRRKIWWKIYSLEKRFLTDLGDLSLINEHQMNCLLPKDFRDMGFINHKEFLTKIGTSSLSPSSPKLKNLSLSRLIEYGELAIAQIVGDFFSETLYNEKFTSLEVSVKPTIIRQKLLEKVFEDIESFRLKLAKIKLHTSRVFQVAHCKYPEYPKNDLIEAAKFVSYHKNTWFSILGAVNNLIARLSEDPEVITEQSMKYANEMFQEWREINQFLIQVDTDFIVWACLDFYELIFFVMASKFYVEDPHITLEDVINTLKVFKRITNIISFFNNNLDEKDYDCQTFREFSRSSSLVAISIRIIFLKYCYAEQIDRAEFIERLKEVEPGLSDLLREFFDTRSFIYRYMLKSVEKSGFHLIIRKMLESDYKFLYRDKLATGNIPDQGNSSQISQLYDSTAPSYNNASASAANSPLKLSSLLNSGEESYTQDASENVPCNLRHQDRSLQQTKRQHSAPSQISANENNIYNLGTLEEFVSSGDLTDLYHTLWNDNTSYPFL
Assay: PBM E-score (8-mer binding enrichment) (E-score (-0.5 to 0.5)); higher = stronger / more preferred TF binding
Conditions: protein concentration: 200 nM; construct: GST-full length
Over roughly 33,000 sequences, “E-score (-0.5 to 0.5)” has its median near -0.035; the highest 2% begin near 0.35. This excerpt belongs to a sample that is enriched for the highest values.
Each record here notes measured PBM E-score.
Kindly provide the number alone.

monomer_sequence	measured_parameter	result
ATCCGGTA	PBM E-score	0.168
CTTGGAGC	PBM E-score	-0.207
CTCGCGAG	PBM E-score	0.192
ATCAGGAT	PBM E-score	0.113
CGGTCTTC	PBM E-score	0.123
CGCGGTCC	PBM E-score	0.384
CGCCTGGC	PBM E-score	-0.0374
GGCGGTAA	PBM E-score	0.326

Here is the next item to consider.
Query block: Could you share which PBM E-score value was measured for ATCCGGTC ?
Result block: 0.215
